Sourced from ChEMBL document CHEMBL4513216

For each of the compounds below, state its cytotoxicity at 10 µM.
# PROCEDURE DETAILS: Toxicity liver stage against HepG2, at 10uM
# Assay type: cell-based
# Design: test concentration 10 uM, cell line HepG2-A16-CD81EGFP
# REPORTED CONDITIONS: human, HepG2-A16-CD81EGFP cells; read-out: INHIBITION
Please make sure the unit comes right after the number.

Dear colleague, I am looking for the recorded cytotoxicity at 10 µM of the following compound: COc1cccc2cc(CNCc3ccc(N4CCCC4)nc3)oc12 -5.42%

Dear colleague, I am looking for the recorded cytotoxicity at 10 µM of the following compound: Cc1cc(-c2cnc(N(C)C)nc2C2CCCCN2C(=O)C2CC2)on1 (centres undefined) 0.095%

Dear colleague, I am looking for the recorded cytotoxicity at 10 µM of the following compound: CS(=O)(=O)N1C[C@@H]2COC[C@]2(CN2CCOCC2)C1 0.472%

Dear colleague, I am looking for the recorded cytotoxicity at 10 µM of the following compound: CC(C)n1cnc2c(N3CCCC3)nc(C3CCNCC3)cc21 -3.03%

Dear colleague, I am looking for the recorded cytotoxicity at 10 µM of the following compound: Cn1ccnc1C1CCN(S(=O)(=O)c2ccc3c(c2)OCCO3)CC1 -13.5%

Dear colleague, I am looking for the recorded cytotoxicity at 10 µM of the following compound: O=C(NCC(=O)N1CCCC1)c1nc(Cc2c(Cl)cccc2Cl)no1 2.63%

Dear colleague, I am looking for the recorded cytotoxicity at 10 µM of the following compound: O=C(c1ccco1)N1C[C@H]2CCCN(Cc3ccncc3)[C@H]2C1 0.361%

Dear colleague, I am looking for the recorded cytotoxicity at 10 µM of the following compound: COCCn1ccc2cc(NC(=O)N(C)C(C)CSC)ccc21 (centres undefined) 0.08%

Dear colleague, I am looking for the recorded cytotoxicity at 10 µM of the following compound: CCn1c(Cn2cncn2)nnc1C1CCN(C2CCNCC2)CC1 -0.0807%

Dear colleague, I am looking for the recorded cytotoxicity at 10 µM of the following compound: Cc1c(C(=O)N2CC(=O)N(C)C2)nnn1-c1cccc2cccnc12 5.64%

Dear colleague, I am looking for the recorded cytotoxicity at 10 µM of the following compound: c1c[nH]c2nc(C3CCCNC3)nc-2c1 (centres undefined) 8.35%

Dear colleague, I am looking for the recorded cytotoxicity at 10 µM of the following compound: Cc1noc(C)c1CNC1CCN(c2ccccc2OC(F)F)C1 (centres undefined) 9.5%

Dear colleague, I am looking for the recorded cytotoxicity at 10 µM of the following compound: CNc1ncccc1CN1CCC1c1cc(N)nc(C)n1 (centres undefined) 15.9%

Dear colleague, I am looking for the recorded cytotoxicity at 10 µM of the following compound: Cc1nc(C(=O)N2CCN(S(C)(=O)=O)CC2)c(-c2ccccc2Cl)s1 4.37%

Dear colleague, I am looking for the recorded cytotoxicity at 10 µM of the following compound: CN(C)C(=O)c1nc(-c2ccc(S(C)(=O)=O)cc2)c2cnccn12 7.27%

Dear colleague, I am looking for the recorded cytotoxicity at 10 µM of the following compound: O=C(C1CC1)N1CCCC1c1nnc2n1CCCCC2 (centres undefined) -0.614%

Dear colleague, I am looking for the recorded cytotoxicity at 10 µM of the following compound: CCN(Cc1ccccc1)c1ncnc2c(C)nn(CC)c12 -2.48%

Dear colleague, I am looking for the recorded cytotoxicity at 10 µM of the following compound: O=C(CCC(=O)Nc1nnc(C(F)(F)F)s1)NCC1CCCO1 (centres undefined) 4.65%

Dear colleague, I am looking for the recorded cytotoxicity at 10 µM of the following compound: Cc1cc(CNC(=O)Nc2cc(F)cc(N3CCCC3)c2)no1 -17.7%

Dear colleague, I am looking for the recorded cytotoxicity at 10 µM of the following compound: CC(C)[C@@H]1CN(Cc2ccccc2C#N)C[C@H]1N(C)C -18.7%

Dear colleague, I am looking for the recorded cytotoxicity at 10 µM of the following compound: CC(=O)c1c(F)cccc1N1CCC(NS(=O)(=O)c2ccccc2)CC1 53.4%

Dear colleague, I am looking for the recorded cytotoxicity at 10 µM of the following compound: CSc1nc(N)c2c(n1)N=C1COC(=O)C1C2c1cccc(O)c1 (centres undefined) 32.8%

Dear colleague, I am looking for the recorded cytotoxicity at 10 µM of the following compound: Cc1cccc(OC2CCN(Cc3ncc[nH]3)CC2)c1 -7.15%

Dear colleague, I am looking for the recorded cytotoxicity at 10 µM of the following compound: CSC(C)(C)CNC(=O)Nc1cccc(-c2nccn2C)c1 -3.13%
